Reported DC50 values for the following compounds.
system_tested: SMARCA2 (Homo sapiens, UniProt P51531)
Construct: endogenous in cells; host or cells: A375 cells (ATCC CRL-1619)
Sequence (P51531 whole entry): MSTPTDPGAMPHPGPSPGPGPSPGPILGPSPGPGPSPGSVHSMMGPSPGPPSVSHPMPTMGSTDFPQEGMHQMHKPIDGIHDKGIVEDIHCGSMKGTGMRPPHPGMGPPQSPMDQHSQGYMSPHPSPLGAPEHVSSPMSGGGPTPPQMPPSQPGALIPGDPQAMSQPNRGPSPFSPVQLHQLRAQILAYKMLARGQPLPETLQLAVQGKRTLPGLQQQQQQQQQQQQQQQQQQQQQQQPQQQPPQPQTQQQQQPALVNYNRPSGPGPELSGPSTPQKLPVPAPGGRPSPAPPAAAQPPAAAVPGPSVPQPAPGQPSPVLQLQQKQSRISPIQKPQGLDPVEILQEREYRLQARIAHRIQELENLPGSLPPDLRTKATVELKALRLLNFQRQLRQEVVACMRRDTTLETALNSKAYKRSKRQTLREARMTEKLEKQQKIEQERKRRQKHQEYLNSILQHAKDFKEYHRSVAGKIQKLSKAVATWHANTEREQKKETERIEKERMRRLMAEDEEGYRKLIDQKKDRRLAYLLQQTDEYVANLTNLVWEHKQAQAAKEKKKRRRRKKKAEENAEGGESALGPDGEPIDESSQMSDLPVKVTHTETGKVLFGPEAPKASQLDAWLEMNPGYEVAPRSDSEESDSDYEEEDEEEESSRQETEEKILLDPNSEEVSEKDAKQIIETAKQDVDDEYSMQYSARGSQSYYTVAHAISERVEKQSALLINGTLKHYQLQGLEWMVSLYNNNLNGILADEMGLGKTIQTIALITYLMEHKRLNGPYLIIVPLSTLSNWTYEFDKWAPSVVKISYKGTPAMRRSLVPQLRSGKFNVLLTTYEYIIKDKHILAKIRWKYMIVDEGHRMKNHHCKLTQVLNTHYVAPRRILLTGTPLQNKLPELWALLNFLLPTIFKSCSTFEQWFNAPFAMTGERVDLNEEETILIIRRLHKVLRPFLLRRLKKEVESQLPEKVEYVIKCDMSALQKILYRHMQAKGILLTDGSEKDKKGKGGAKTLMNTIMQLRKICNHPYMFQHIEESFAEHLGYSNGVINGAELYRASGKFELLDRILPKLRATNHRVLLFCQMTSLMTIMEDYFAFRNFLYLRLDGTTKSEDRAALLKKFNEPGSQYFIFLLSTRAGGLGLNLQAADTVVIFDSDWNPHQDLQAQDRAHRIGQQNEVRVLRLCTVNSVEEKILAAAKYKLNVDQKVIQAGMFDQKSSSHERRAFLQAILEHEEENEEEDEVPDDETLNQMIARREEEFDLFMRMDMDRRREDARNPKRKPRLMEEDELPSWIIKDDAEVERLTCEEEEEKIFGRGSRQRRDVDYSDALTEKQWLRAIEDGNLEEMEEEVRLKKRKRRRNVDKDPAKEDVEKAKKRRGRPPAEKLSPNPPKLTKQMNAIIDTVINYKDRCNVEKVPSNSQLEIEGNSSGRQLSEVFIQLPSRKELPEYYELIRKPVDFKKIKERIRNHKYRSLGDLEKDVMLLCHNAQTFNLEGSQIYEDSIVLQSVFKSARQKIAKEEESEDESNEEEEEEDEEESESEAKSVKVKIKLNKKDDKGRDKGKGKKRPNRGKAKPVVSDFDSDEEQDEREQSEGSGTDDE
assay_method_text: SMARCA2 MSD assay in A375 cells (SMARCA2 degradation, 2 h)
Format: cell-based
assay_conditions: 2 h compound treatment, N/C = no curve, read-out: A375 SMARCA2 MSD IC50 IP
Report as a plain number; the unit nM is understood.

Challenge: // Input: `Cc1ncsc1-c1ccc([C@H](C)NC(=O)[C@@H]2C[C@@H](O)CN2C(=O)[C@@H](NC(=O)c2cccc(N3CCN(c4cc(-c5ccccc5O)nnc4N)CC3)c2)C(C)(C)C)cc1` . Output its DC50 only.
Response given: 22

Challenge: Please indicate DC50 recorded for `Cc1ncsc1-c1ccc(CNC(=O)[C@@H]2C[C@@H](O)CN2C(=O)[C@@H](NC(=O)c2ccnc(N3CCN(c4cc(-c5ccccc5O)nnc4N)CC3)c2)C(C)(C)C)cc1`
Response given: 110

Challenge: Specify measured DC50 for Cc1ncsc1-c1ccc([C@H](C)NC(=O)[C@@H]2C[C@@H](O)CN2C(=O)[C@@H](NC(=O)CN2CCN(c3cc(-c4ccccc4O)nnc3N)CC2)C(C)(C)C)cc1 [compound 1, reference compound] .
Response given: 250

Challenge: Using known records, supply DC50 for `Cc1ncsc1-c1ccc([C@H](C)NC(=O)[C@@H]2C[C@@H](O)CN2C(=O)[C@@H](NC(=O)c2csc(N3CCN(c4cc(-c5ccccc5O)nnc4N)CC3)n2)C(C)(C)C)cc1`
Response given: 150

***
Challenge: Give the value of DC50 reported for the following: `Cc1ncsc1-c1ccc([C@H](C)NC(=O)[C@@H]2C[C@@H](O)CN2C(=O)[C@@H](NC(=O)c2cccc(N3CCN(c4nc(-c5ccccc5O)nnc4N)CC3)n2)C(C)(C)C)cc1`
Response given: 250
